System: U-251
assay.summary: NCI tumour cell line growth inhibition, 48 h
Active and inactive are the calls of the source. Cut-off read from the data, not from the text of the source: active = GI50 up to about 1.1 µM and inactive = higher.
Returns: one label drawn from class 1 for active, class 0 for inactive

Q) Recorded call for CC1=CC(C)C(O)C(C)/C=C\C(O)C/C=C(/C)C(=O)CC(O)C(C)\C=C/C=C\C=C/C(=O)NC2=C(O)C(=O)c3c(cc(C)c(O)c3C1=O)C2=O (stereo not given) ?
A) class 0

Q) Just curious, what result did C/C(=C\COP(=O)(O)OP(=O)(O)O)CC/C=C(\C)CNc1ccc([N+](=O)[O-])cc1 get here?
A) class 0

Q) Which result was noted for this compound in the test: N/N=C1\C(=O)N(c2ccc(Cl)cc2Cl)C(=O)C(=O)C1c1nc2ccccc2o1 (stereo not given)
A) class 0

Q) Called result for COC(=O)CCSC(=O)Nc1ccc(/N=N/c2ccccc2)cc1
A) class 0

Q) What outcome does the record of this test show for CCCCCCCCCCCCCCCCC(=O)NCC(=O)NCC(=O)NC(Cc1ccccc1)C(=O)Oc1ccc([N+](=O)[O-])cc1 (stereo not given) ?
A) class 0

Q) Call for entry COCn1cnc2c(=O)n(-c3ccc(C)cc3)c(=S)n(-c3ccc(C)cc3)c21 :
A) class 0

Q) Query: recorded result category for CN(C)CCn1c(=O)c2ccc(NCCNCCO)c3c(=O)c4cc(O)ccc4n(c1=O)c23 in this test
A) class 1

Q) Test call for this compound, please: COC1=CC(=O)c2c(O)c3c(c(O)c2C1=O)CC(C)(O)OC3 (stereo not given)
A) class 0

Q) Just curious, what result did Cc1cn(CC2(CO)CCC2)c(=O)[nH]c1=O get here?
A) class 0

Q) Please indicate how the test categorized Oc1cc(-c2ccco2)nc2cc3c(cc12)OCO3 .
A) class 0

Q) Test call for this compound, please: O=C(Cl)C1=C(c2ccccc2)C1c1ccccc1 (stereo not given)
A) class 0

Q) Record request — test call for CC(=O)CC(O)(C(F)(F)Cl)C(F)(F)Cl
A) class 0

Q) Please let me know the test result on file for Cc1ccc2nc(NC(=O)C(=O)C(C(=O)c3ccc4ccccc4c3)C3OC(=O)c4ccccc43)sc2c1 (stereo not given) .
A) class 0

Q) What is the recorded call for this compound in the test? N#Cc1cc([N+](=O)[O-])ccc1NC(=O)C(F)(F)F
A) class 0

Q) What call does the record list for CCOC(=O)C1=C(Nc2ccc(Br)cc2)OCC1=O ?
A) class 0

Q) Outcome? O=C1N/C(=N/N=C/c2c[nH]c3ccccc23)N/C1=C\c1cccs1
A) class 0

Q) Please let me know the test result on file for COC1=C2CC(C)CC(OC)C(O)C(C)/C=C(\C)C(OC(N)=O)C(OC)/C=C\C=C(/C)C(=O)NC(=C(/C=N/C(C)(C)C)C1=O)C2=O (stereo not given) .
A) class 0

Q) For O=C1C(=O)c2ccccc2C=C1[N+](=O)[O-] , what call appears in the results of this test?
A) class 0

Q) How was C=C1C(=O)OC2CC(C)C3(O)CCC(=O)C3(C)CC12 (stereo not given) classified in this test?
A) class 0

Q) What classification did CCSc1nc(N/N=C/c2cccs2)c2cnn(CO)c2n1 end up with in this test?
A) class 0

----------
Test system: LXFL 529
assay.summary: NCI tumour cell line growth inhibition, 48 h
Calls of active or inactive are those of the source. Rule as the data show it: active = GI50 up to about 1.1 µM and inactive = higher.
quantity.name: GI50

# GI50 (compound: CCN(CC)c1ccc(/N=N/c2ccc(-c3nc4cccn(C)c-4n3)cc2)cc1 ) is 3.95 µM (inactive)

For O=c1nc(/C=C/c2ccccc2Cl)cc2n1CCN2CCO the compound record lists GI50 as 55.1 µM (inactive)

What the record says about CCOC(=O)/C=C(\C)c1ccc(Cl)cc1 : GI50 is > 100 µM (inactive)

Memo: CCC(=O)C(C)C(=O)C(=O)C(=O)OC (stereo unspecified) , reported GI50: > 100 µM (inactive)

The compound listed as COc1ccc(-c2cc(=O)c3ccccc3[nH]2)c(OC)c1 shows GI50 equal to > 100 µM (inactive)

For this compound ( Oc1nc2cc(Cl)ccc2nc1/C(=N\Nc1ccccc1)C(O)c1ccc(Cl)c(Cl)c1 (stereo unspecified) ), measured GI50 is > 100 µM (inactive)

Value of GI50 reported for the compound COC(=O)c1cc(C(=O)OC)c(CC(=O)C(=O)NC2C3CC4CC(C3)CC2C4)nc1CC(=O)C(=O)NC1C2CC3CC(C2)CC1C3 (stereo unspecified) is > 100 µM (inactive)

// GI50 value for COC(=O)C(=O)C(C(C)=O)C(=O)NCc1ccc(OC)c(OC)c1 (stereo unspecified) : > 100 µM (inactive)

The recorded GI50 for N#Cc1cc([N+](=O)[O-])ccc1NC(=O)C(F)(F)F is > 100 µM (inactive)

Note to self: GI50 recorded for COC(=O)C1CCc2nnc(-c3ccccc3)n21 (stereo unspecified) was > 100 µM (inactive)

response.value for CC(=O)NC(CCCCNC(=O)NCCCl)C(=O)NCc1ccccc1 (stereo unspecified) (field: GI50) = > 100 µM (inactive)
